Measured pIC50 (human EGFR kinase domain (Homo sapiens (Human), UniProt P00533))
Lab note: report pIC50 as minus log10 of the concentration in molar units, number only.

Value of measured pIC50 for the entry `NC(=O)c1c(-c2ccc(Oc3ncc(Cl)cc3F)cc2)nn([C@@H]2CCCN(C(=O)/C=C/CF)C2)c1N` : 6.42

`C=CC(=O)N1CCC[C@@H](n2nc(-c3ccc(Oc4ccc(F)cc4F)cc3)c(C(N)=O)c2N)C1` has a reported pIC50 of 7.59

Quick note, pIC50 for `NC(=O)c1c(-c2ccc(Oc3ccc(Cl)cn3)cc2)nn([C@@H]2CCCN(C(=O)/C=C/C(F)F)C2)c1N` landed at 6.51
